tgt: human Gal-3 (hGal-3) (Homo sapiens (Human))
assay-name: competitive binding assay: biotinylated hGal-3 binding to microplate-adsorbed asialofetuin (ASF)
condition-info: Gal-3 inhibition; binding of biotinylated hGal-3 to ASF; mean values; read-out: IC50
Classify by IC50. Ranges: low band: < 70 nM; middle band: ≥ 70 nM and < 2000 nM; high band: ≥ 2000 nM

Problem: Which bin should I file CC(C)Cc1c([C@H](S[C@@H]2O[C@H](CO)[C@H](O)[C@H](n3cc(-c4cc(F)c(F)c(F)c4)nn3)[C@H]2O)C2(O)CCC(F)(F)CC2)noc1C1CC1 [Example 2.44.131S.] under?
Solution: high band

Problem: Which bin should I file CCO[C@@H]1[C@@H](n2cc(-c3cc(F)c(F)c(F)c3)nn2)[C@@H](O)[C@@H](CO)O[C@H]1SC(c1ncccc1C)C1(O)CCC(F)(F)CC1 (stereo partly drawn) [Example 2.44.126.II.] under?
Solution: middle band

Problem: Which bin should I file Cc1ccnnc1[C@@H](S[C@@H]1O[C@H](CO)[C@H](O)[C@H](n2cc(-c3cc(F)c(F)c(F)c3)nn2)[C@H]1O)C1(O)CCC(F)(F)CC1 [Example 2.44.135R.] under?
Solution: low band

Problem: Which bin should I file Cc1nc(C)c(C(S[C@@H]2O[C@H](CO)[C@H](O)[C@H](n3cc(-c4cc(F)c(F)c(F)c4)nn3)[C@H]2O)C(C)(C)O)nc1C (stereo partly drawn) [Example 2.31.119.] under?
Solution: middle band

Problem: Which bin should I file OC[C@H]1O[C@@H](S[C@H](c2nccnc2Cl)C2(O)CCC(F)(F)CC2)[C@H](O)[C@@H](n2cc(-c3cc(F)c(F)c(F)c3)nn2)[C@H]1O [Example 2.44.133R.] under?
Solution: low band

Problem: Which bin should I file CS(=O)(=O)N1CCC(O)([C@H](S[C@@H]2O[C@H](CO)[C@H](O)[C@H](n3cc(-c4cc(F)c(F)c(F)c4)nn3)[C@H]2O)c2ccccc2C(F)(F)F)CC1 [Example 2.47.112R.] under?
Solution: low band

Problem: Which bin should I file OCC(S[C@@H]1O[C@H](CO)[C@H](O)[C@H](n2cc(-c3cccc(F)c3)nn2)[C@H]1O)c1ccccc1Br (stereo partly drawn) [Example 1.30.101.] under?
Solution: middle band

Problem: Which bin should I file CS(=O)(=O)N1CCC(O)([C@@H](S[C@@H]2O[C@H](CO)[C@H](O)[C@H](n3cc(-c4cc(F)c(F)c(F)c4)nn3)[C@H]2O)c2ccccc2C(F)(F)F)CC1 [Example 2.47.112S.] under?
Solution: high band

Problem: Which bin should I file CCc1c([C@@H](S[C@@H]2O[C@H](CO)[C@H](O)[C@H](n3cc(-c4cc(F)c(F)c(F)c4)nn3)[C@H]2O)C2(O)CCC(F)(F)CC2)noc1C1CC1 [Example 2.44.130R.] under?
Solution: low band

Problem: Which bin should I file O=C(NC1CC1)N1CCC(O)([C@@H](S[C@@H]2O[C@H](CO)[C@H](O)[C@H](n3cc(-c4cc(F)c(F)c(F)c4)nn3)[C@H]2O)c2ccccc2C(F)(F)F)CC1 [Example 2.49.112S.] under?
Solution: high band

Problem: Which bin should I file CC(C)c1ccccc1[C@H](S[C@@H]1O[C@H](CO)[C@H](O)[C@H](n2cc(-c3cc(F)c(F)c(F)c3)nn2)[C@H]1O)C(C)(C)O [Example 2.31.105S.] under?
Solution: high band

Problem: Which bin should I file Cc1nc(C)c([C@H](S[C@@H]2O[C@H](CO)[C@H](O)[C@H](n3cc(-c4cc(F)c(F)c(F)c4)nn3)[C@H]2O)C(C)(C)O)nc1C [Example 2.31.119S.] under?
Solution: high band

Problem: Which bin should I file Cc1conc1C(S[C@@H]1O[C@H](CO)[C@H](O)[C@H](n2cc(-c3cc(F)c(F)c(F)c3)nn2)[C@H]1O)C1(O)CCS(=O)(=O)CC1 (stereo partly drawn) [Example 2.66.120.] under?
Solution: middle band

Problem: Which bin should I file CC(C)(O)[C@H](S[C@@H]1O[C@H](CO)[C@H](O)[C@H](n2cc(-c3cc(F)c(F)c(F)c3)nn2)[C@H]1O)c1ccccc1CCO [Example 2.31.108R.] under?
Solution: middle band

Problem: Which bin should I file CC(C)(O)[C@H](S[C@@H]1O[C@H](CO)[C@H](O)[C@H](n2cc(-c3cc(F)c(F)c(F)c3)nn2)[C@H]1O)c1cccnc1C(F)(F)F [Example 2.31.118R.] under?
Solution: middle band

Problem: Which bin should I file CCO[C@@H]1[C@@H](n2cc(-c3cc(F)c(F)c(F)c3)nn2)[C@@H](O)[C@@H](CO)O[C@H]1S[C@H](c1ncccc1C)C1(O)CCC(F)(F)CC1 [Example 2.44.126R.II.] under?
Solution: middle band

Problem: Which bin should I file OC[C@H]1O[C@@H](S[C@H](c2ncccc2C2CC2)C2(O)CCC(F)(F)CC2)[C@H](O)[C@@H](n2cc(-c3cc(F)c(F)c(F)c3)nn2)[C@H]1O [Example 2.44.134R.] under?
Solution: low band

Problem: Which bin should I file Cc1nc(C(S[C@@H]2O[C@H](CO)[C@H](O)[C@H](n3cc(-c4cc(F)c(F)c(F)c4)nn3)[C@H]2O)C(C)(C)O)c(C)o1 (stereo partly drawn) [Example 2.31.122.] under?
Solution: middle band

Problem: Which bin should I file Cc1nccnc1[C@@H](S[C@@H]1O[C@H](CO)[C@H](O)[C@H](n2cc(-c3cc(F)c(F)c(F)c3)nn2)[C@H]1O)C1(O)CCC(F)(F)CC1 [Example 2.44.129R.] under?
Solution: low band

Problem: Which bin should I file Cc1nc(C)c([C@H](S[C@@H]2O[C@H](CO)[C@H](O)[C@H](n3cc(-c4cc(F)c(F)c(F)c4)nn3)[C@H]2O)C2(O)CCN(C)CC2)nc1C [Example 2.40.119S.] under?
Solution: high band

* * *

endpoint-label: log10 IC50 (log10 of the value in nM)
Annotation: log10 of IC50, nM basis.

Problem: Item: CO[C@@H]1[C@@H](n2cc(-c3cc(F)c(F)c(F)c3)nn2)[C@@H](O)[C@@H](CO)O[C@H]1S[C@H](c1nocc1C)C1(O)CCC(F)(F)CC1 [Example 2.44.120R.I.] Test system: human Gal-1 (hGal-1) (Homo sapiens (Human)) Read-out: log10 IC50 Value: ?
Solution: 2.79

Problem: Item: CC(C)Cc1ccccc1[C@@H](S[C@@H]1O[C@H](CO)[C@H](O)[C@H](n2cc(-c3cc(F)c(F)c(F)c3)nn2)[C@H]1O)C(C)(C)O [Example 2.31.107R.] Test system: human Gal-1 (hGal-1) (Homo sapiens (Human)) Read-out: log10 IC50 Value: ?
Solution: 2.48

Problem: Item: Cc1ccccc1C(S[C@@H]1O[C@H](CO)[C@H](O)[C@H](n2cc(-c3cc(F)c(F)c(F)c3)nn2)[C@H]1O)C1(O)CC(C)(C)C1 (stereo partly drawn) Test system: human Gal-1 (hGal-1) (Homo sapiens (Human)) Read-out: log10 IC50 Value: ?
Solution: 3.79

Problem: Item: Cc1cccnc1[C@@H](S[C@@H]1O[C@H](CO)[C@H](O)[C@H](n2cc(-c3cc(F)c(F)c(F)c3)nn2)[C@H]1O)C1(O)CCC(F)(F)CC1 [Example 2.44.126R.] Test system: human Gal-1 (hGal-1) (Homo sapiens (Human)) Read-out: log10 IC50 Value: ?
Solution: 2.48

Problem: Item: CC(C)(O)[C@H](S[C@@H]1O[C@H](CO)[C@H](O)[C@H](n2cc(-c3cc(F)c(F)c(F)c3)nn2)[C@H]1O)c1cccnc1C(F)(F)F [Example 2.31.118R.] Test system: human Gal-1 (hGal-1) (Homo sapiens (Human)) Read-out: log10 IC50 Value: ?
Solution: 2.81

Problem: Item: OC[C@H]1O[C@@H](SC(c2ccccc2)C2CC2)[C@H](O)[C@@H](n2cc(-c3cc(F)c(F)c(F)c3)nn2)[C@H]1O (stereo partly drawn) [Example 2.54.100., reference compound] Test system: human Gal-1 (hGal-1) (Homo sapiens (Human)) Read-out: log10 IC50 Value: ?
Solution: 4.79

* * *

tgt: human Gal-3 (hGal-3) (Homo sapiens (Human), UniProt P17931)
Sequence (P17931 whole entry): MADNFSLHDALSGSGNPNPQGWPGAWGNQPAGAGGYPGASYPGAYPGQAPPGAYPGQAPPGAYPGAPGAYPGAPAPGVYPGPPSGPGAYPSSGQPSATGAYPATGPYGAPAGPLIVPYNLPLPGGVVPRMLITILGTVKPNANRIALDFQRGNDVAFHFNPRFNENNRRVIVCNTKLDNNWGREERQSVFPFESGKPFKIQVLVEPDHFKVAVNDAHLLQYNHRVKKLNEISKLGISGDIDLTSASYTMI
assay-name: competitive binding assay: biotinylated hGal-3 binding to microplate-adsorbed asialofetuin (ASF)
condition-info: Gal-3 inhibition; binding of biotinylated hGal-3 to ASF; mean values; read-out: IC50
endpoint-label: pIC50
By convention, pIC50 is the negative base-10 log of a molar concentration.

Problem: What measured pIC50 goes with CC(C)(O)C(S[C@@H]1O[C@H](CO)[C@H](O)[C@H](n2cc(-c3cc(F)c(F)c(F)c3)nn2)[C@H]1O)c1cccc(Cl)c1Cl (some centres unmarked) [Example 2.31.113.] ?
Solution: 6.34

Problem: What measured pIC50 goes with Cc1conc1C(S[C@@H]1O[C@H](CO)[C@H](O)[C@H](n2cc(-c3cc(F)c(F)c(F)c3)nn2)[C@H]1O)C(C)(C)O (some centres unmarked) [Example 2.31.120.] ?
Solution: 6.14

Problem: What measured pIC50 goes with Cc1nccnc1[C@H](S[C@@H]1O[C@H](CO)[C@H](O)[C@H](n2cc(-c3cc(F)c(F)c(F)c3)nn2)[C@H]1O)C1(O)CCC(F)(F)CC1 [Example 2.44.129S.] ?
Solution: 5.83

Problem: What measured pIC50 goes with Cc1ccncc1C(S[C@@H]1O[C@H](CO)[C@H](O)[C@H](n2cc(-c3cc(F)c(F)c(F)c3)nn2)[C@H]1O)C(C)(C)O (some centres unmarked) [Example 2.31.117.] ?
Solution: 6.28

Problem: What measured pIC50 goes with CCc1c([C@H](S[C@@H]2O[C@H](CO)[C@H](O)[C@H](n3cc(-c4cc(F)c(F)c(F)c4)nn3)[C@H]2O)C2(O)CCC(F)(F)CC2)noc1C1CC1 [Example 2.44.130S.] ?
Solution: 5.73

Problem: What measured pIC50 goes with CC(C)Cc1ccccc1C(S[C@@H]1O[C@H](CO)[C@H](O)[C@H](n2cc(-c3cc(F)c(F)c(F)c3)nn2)[C@H]1O)C(C)(C)O (some centres unmarked) [Example 2.31.107.] ?
Solution: 6.59

Problem: What measured pIC50 goes with CC(C)(O)[C@@H](S[C@@H]1O[C@H](CO)[C@H](O)[C@H](n2cc(-c3cc(F)c(F)c(F)c3)nn2)[C@H]1O)c1ccccc1C1CC1 [Example 2.31.106S.] ?
Solution: 4.80

Problem: What measured pIC50 goes with OC[C@H]1O[C@@H](SC(c2ncccc2C2CC2)C2(O)CCC(F)(F)CC2)[C@H](O)[C@@H](n2cc(-c3cc(F)c(F)c(F)c3)nn2)[C@H]1O (some centres unmarked) [Example 2.44.134.] ?
Solution: 7.15

Problem: What measured pIC50 goes with O=C(NC1CC1)N1CCC(O)([C@H](S[C@@H]2O[C@H](CO)[C@H](O)[C@H](n3cc(-c4cc(F)c(F)c(F)c4)nn3)[C@H]2O)c2ccccc2C(F)(F)F)CC1 [Example 2.49.112R.] ?
Solution: 7.30

Problem: What measured pIC50 goes with CC(=O)N1CCC(O)(C(S[C@@H]2O[C@H](CO)[C@H](O)[C@H](n3cc(-c4cc(F)c(F)c(F)c4)nn3)[C@H]2O)c2ccccc2C(F)(F)F)CC1 (some centres unmarked) [Example 2.48.112.] ?
Solution: 6.66

Problem: What measured pIC50 goes with CCc1c(C(S[C@@H]2O[C@H](CO)[C@H](O)[C@H](n3cc(-c4cc(F)c(F)c(F)c4)nn3)[C@H]2O)C2(O)CCC(F)(F)CC2)noc1C1CC1 (some centres unmarked) [Example 2.44.130.] ?
Solution: 7.22
